Source: ChEMBL document CHEMBL1921795

A set of molecules tested on Cytochrome P450 2C9 (Homo sapiens), with measured IC50:

{"molecule": "O=C(Nc1ccc(N2C(=O)CC(c3ccccc3)C2=O)c(Cl)c1)c1ccccn1 (racemic)", "endpoint_value": "8.7 µM"}
{"molecule": "O=C(Nc1ccc(N2S(=O)(=O)c3ccccc3S2(=O)=O)cc1)c1ccccn1", "endpoint_value": "> 30 µM"}
{"molecule": "O=C(Nc1ccc(N2C(=O)CC3(CCCCC3)C2=O)c(Cl)c1)c1ccccn1", "endpoint_value": "> 30 µM"}

-- ask For the molecule COc1cc(NC(=O)c2ccccn2)ccc1Cl , report IC50.
-- reply > 30 µM

-- ask Input O=C(Nc1ccc(N2C(=O)[C@@H]3[C@H](C2=O)[C@@H]2C=C[C@H]3C2)c(Cl)c1)c1ccccn1 (mixture of isomers) , output reported IC50.
-- reply > 30 µM
